Hello, the source for this data is BigSolDB 2.1, in case you need it.

- CONDITION NOTES: in 1,1,2-trichloroethane, 313.15 K
MEASUREMENT KIND: solubility (mole fraction)
Keep it simple and answer with nothing but the number.

Identify the reported solubility (mole fraction) for the following entry. C1CC1N1C2C3N(C4CC4)C1C1N(C4CC4)C(C(N1C1CC1)N3C1CC1)N2C1CC1
0.0206

---

- CONDITION NOTES: in dichloromethane, 293.15 K
MEASUREMENT KIND: solubility (mole fraction)
Keep it simple and answer with nothing but the number.

Identify the reported solubility (mole fraction) for the following entry. C1CC1N1C2C3N(C4CC4)C1C1N(C4CC4)C(C(N1C1CC1)N3C1CC1)N2C1CC1
0.0194
